Test system: 855422-203-R-J1-PDC spheroids with HUVEC/MSC, viability;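 also: agents incubated with spheroids for one week before read-out; 100% = DMSO vehicle-treated control wells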
Assay: Anticancer human tumor 855422-203-R-J1-PDC patient-derived bladder carcinoma cell line growth inhibition [PI3K]
Conditions: second compound 10 µM; first compound 10 µM; hits give low values
measurement_name: viability, T/C (%)
Unit % implied. Number only.

# count of solved cases: 2
compound	experimental_value
CNC(=O)c1ccc(N2C(=S)N(c3ccc(C#N)c(C(F)(F)F)c3)C(=O)C2(C)C)cc1F + CC(Nc1ncnc2nc[nH]c12)c1cc2cccc(Cl)c2c(=O)n1-c1ccccc1	68.4
C#Cc1c(F)ccc2cc(O)cc(-c3ncc4c(N5CC6CCC(C5)N6)nc(OCC56CCCN5CC(F)C6)nc4c3F)c12 (centres undefined) + Cc1nc(NC(=O)N2CCCC2C(N)=O)sc1-c1ccnc(C(C)(C)C(F)(F)F)c1	7.62

What value of viability, T/C has been recorded for this entry: Cn1nccc1Nc1nccc(-c2ccn(C(CO)c3ccc(Cl)c(F)c3)c(=O)c2)n1 (centres undefined) + CC(Nc1ncnc2nc[nH]c12)c1cc2cccc(Cl)c2c(=O)n1-c1ccccc1
25.1

What value of viability, T/C has been recorded for this entry: CC1(C)CCC(Nc2ncc(C(F)(F)F)c(-c3c[nH]c4c(P(C)(C)=O)c(C#N)ccc34)n2)CN1 (centres undefined) + CC(Nc1ncnc2nc[nH]c12)c1cc2cccc(Cl)c2c(=O)n1-c1ccccc1
1.26

What value of viability, T/C has been recorded for this entry: CCCS(=O)(=O)Nc1ccc(F)c(C(=O)c2c[nH]c3ncc(-c4ccc(Cl)cc4)cc23)c1F + Cc1nc(NC(=O)N2CCCC2C(N)=O)sc1-c1ccnc(C(C)(C)C(F)(F)F)c1
0.19

What value of viability, T/C has been recorded for this entry: C=CC(=O)N1CCN(c2nc(=O)n(-c3c(C)ccnc3C(C)C)c3nc(-c4c(O)cccc4F)c(F)cc23)C(C)C1 (centres undefined) + Cc1nc(NC(=O)N2CCCC2C(N)=O)sc1-c1ccnc(C(C)(C)C(F)(F)F)c1
34.2

What value of viability, T/C has been recorded for this entry: C=CC(=O)N1CCN(c2nc(=O)n(-c3c(C)ccnc3C(C)C)c3nc(-c4c(O)cccc4F)c(F)cc23)C(C)C1 (centres undefined) + CC(Nc1ncnc2nc[nH]c12)c1cc2cccc(Cl)c2c(=O)n1-c1ccccc1
105

What value of viability, T/C has been recorded for this entry: CC1(C)CCC(CN2CCN(c3ccc(C(=O)NS(=O)(=O)c4ccc(NCC5CCOCC5)c([N+](=O)[O-])c4)c(Oc4cnc5[nH]ccc5c4)c3)CC2)=C(c2ccc(Cl)cc2)C1 + CC(Nc1ncnc2nc[nH]c12)c1cc2cccc(Cl)c2c(=O)n1-c1ccccc1
2.02

What value of viability, T/C has been recorded for this entry: CNC(=O)c1ccc(N2C(=S)N(c3ccc(C#N)c(C(F)(F)F)c3)C(=O)C2(C)C)cc1F + Cc1nc(NC(=O)N2CCCC2C(N)=O)sc1-c1ccnc(C(C)(C)C(F)(F)F)c1
16.8

What value of viability, T/C has been recorded for this entry: CC1(C)CCC(Nc2ncc(C(F)(F)F)c(-c3c[nH]c4c(P(C)(C)=O)c(C#N)ccc34)n2)CN1 (centres undefined) + Cc1nc(NC(=O)N2CCCC2C(N)=O)sc1-c1ccnc(C(C)(C)C(F)(F)F)c1
0.26

What value of viability, T/C has been recorded for this entry: CC(C)NCC(C(=O)N1CCN(c2ncnc3c2C(C)CC3O)CC1)c1ccc(Cl)cc1 (centres undefined) + Cc1nc(NC(=O)N2CCCC2C(N)=O)sc1-c1ccnc(C(C)(C)C(F)(F)F)c1
3.97
